- assayed.target: human recombinant IRAK4 protein (Homo sapiens (Human), UniProt Q9NWZ3)
- Sequence (Q9NWZ3 whole entry): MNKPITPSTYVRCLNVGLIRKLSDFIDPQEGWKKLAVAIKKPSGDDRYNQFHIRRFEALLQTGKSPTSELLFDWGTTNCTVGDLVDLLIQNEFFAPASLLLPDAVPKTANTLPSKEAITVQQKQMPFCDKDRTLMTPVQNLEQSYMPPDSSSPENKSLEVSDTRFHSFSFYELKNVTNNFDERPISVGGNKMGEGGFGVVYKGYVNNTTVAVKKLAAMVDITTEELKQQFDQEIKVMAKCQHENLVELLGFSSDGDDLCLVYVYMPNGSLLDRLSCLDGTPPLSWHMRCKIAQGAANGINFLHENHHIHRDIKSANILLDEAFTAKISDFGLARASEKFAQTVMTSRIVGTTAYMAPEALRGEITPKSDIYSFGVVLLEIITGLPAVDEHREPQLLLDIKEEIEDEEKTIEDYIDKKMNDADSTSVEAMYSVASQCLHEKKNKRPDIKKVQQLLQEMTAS
- experiment.summary: IRAK4 enzyme assay (mass spectrometry readout)
- experimental.setup: 3 mM ATP, 0.2 nM enzyme; geometric mean of at least n=2, * single experiment
Recorded IC50 by entry
Your answer is read as nM, so omit the unit and give the number.

Consider the reported IC50 for these molecules:
• CC1(O)CC2(CCC(n3cc4cc(C(=O)Nc5cnn6cccnc56)c(OC5CC5)cc4n3)CC2)C1 (single isomer, unassigned) [Example 16] = 0.6
• COc1cc2nn([C@H]3CC[C@@H](N(C)C(C)=O)CC3)cc2cc1C(=O)Nc1cnn2cnccc12 = 83.1
• COc1cc2nn([C@H]3CCC[C@@H](O)C3)cc2cc1C(=O)Nc1cnn2cccnc12 (single isomer, unassigned) [Example 14] = 17.7
• COc1cc2nn([C@@H]3CC[C@]4(CC(=O)N(C)C4)C[C@H]3C)cc2cc1C(=O)Nc1cnc2cccnn12 (relative stereo) [Example 70] = 0.4
• COc1cc2nn([C@H]3CC[C@H](N(C)C(=O)[C@@H](C)O)CC3)cc2cc1C(=O)Nc1cnc2cccnn12 = 0.2
• COc1cc2nn([C@@H]3CCC4(C[C@@H]3C)CN(C(C)=O)C4)cc2cc1C(=O)Nc1cnc2cccnn12 (single isomer, unassigned) [Example 65] = 1.1
• COc1cc2nn(C3CCC(C)(O)CC3)cc2cc1C(=O)Nc1cnc2cccnn12 (single isomer, unassigned) [Example 49] = 6.1
• COc1cc2nn([C@H]3CC[C@@H](NC(=O)C4CC4)CC3)cc2cc1C(=O)Nc1cnn2cnccc12 = 4.4
• COc1cc2nn([C@H]3CC[C@H](N(C)C(=O)C[C@H](C)O)CC3)cc2cc1C(=O)Nc1cnn2cccnc12 = 0.9
• COc1cc2nn([C@H]3CC[C@H](O)[C@H](C)C3)cc2cc1C(=O)Nc1cnc2cccnn12 (single isomer, unassigned) [Example 79] = 1

# input molecule: COc1cc2nn(C3CCC4(CC3)COCC(=O)N4C)cc2cc1C(=O)Nc1cnn2cccnc12 (single isomer, unassigned) [Example 119] ; wanted: its IC50 0.5

# input molecule: COc1cc2nn([C@H]3CC[C@H](O)[C@@H](C)C3)cc2cc1C(=O)Nc1cnc2cccnn12 (single isomer, unassigned) [Example 80] ; wanted: its IC50 1.5

# input molecule: `COc1cc2nn([C@H]3CC[C@H](N(C)C(C)=O)CC3)cc2cc1C(=O)Nc1cnn2cnccc12` ; wanted: its IC50 1.4

====

Recorded log10 of IC50 by entry
- assayed.target: human recombinant IRAK4 protein (Homo sapiens (Human), UniProt Q9NWZ3)
- experiment.summary: IRAK4 enzyme assay (mass spectrometry readout)
- experimental.setup: 3 mM ATP, 0.2 nM enzyme; geometric mean of at least n=2, * single experiment
Scale: log10; quantity: IC50; unit before log: nM

Consider the reported log10 of IC50 for these compounds:
* C[C@H]1C[C@H](O)CC[C@@H]1n1cc2cc(C(=O)Nc3cnn4cccnc34)c(OC3CC3)cc2n1 (relative stereo) | 0.26
* CC(=O)N1CC2(CC[C@@H](n3cc4cc(C(=O)Nc5cnn6cccnc56)c(OC5CC5)cc4n3)[C@H](C)C2)C1 (single isomer, unassigned) [Example 29] | -0.30
* C[C@H]1C[C@@H](O)CC[C@@H]1n1cc2cc(C(=O)Nc3cnn4cccnc34)c(OC3CC3)cc2n1 (single isomer, unassigned) [Example 45] | 0.08
* COc1cc2nn([C@H]3CC[C@@H](N(C)C(C)=O)CC3)cc2cc1C(=O)Nc1cnc2cccnn12 | 0.71

# input compound: COc1cc2nn([C@H]3CCC[C@@H](O)C3)cc2cc1C(=O)Nc1cnc2cccnn12 (single isomer, unassigned) [Example 10] ; wanted: its log10 of IC50 0.08

# input compound: COc1cc2nn([C@H]3CC[C@H](N(C)C(=O)[C@@H]4CC[C@H](O)C4)CC3)cc2cc1C(=O)Nc1cnn2cccnc12 (relative stereo) ; wanted: its log10 of IC50 -0.15

====

- assayed.target: IRAK4 auto-phosphorylation (Homo sapiens (Human), UniProt Q9NWZ3)
- Sequence (Q9NWZ3 whole entry): as above
- experiment.summary: IRAK4 phosphorylation cell assay in IL-1β-stimulated Karpas-299 cells
- experimental.setup: IL-1β 22.7 ng/mL, pIRAK4 (Thr345/Ser346), geometric mean of at least 2 experiments
- Method: IRAK4 Phosphorylation Cell Assay The activation of IRAK4 by TLR or IL-1R ligands leads to IRAK4 auto-phosphorylation, which can be prevented by IRAK4 kinase inhibitors. The effect of IRAK4 inhibitor compounds on IRAK4 auto-phosphorylation was assessed in IL-1β-stimulated Karpas-299 cells as a measurement of cellular potency. […] Images were analysed in Columbus (PerkinElmer) and the fluorescence intensity per cell from the secondary antibody was quantified. […]
readout: IC50 (nM)
Your answer is read as nM, so omit the unit and give the number.

Consider the reported IC50 for these molecules:
- COc1cc2nn([C@@H]3CC[C@]4(CC(=O)N(C)C4)C[C@H]3C)cc2cc1C(=O)Nc1cnc2cccnn12 (relative stereo) [Example 70]: 9
- COc1cc2nn([C@H]3CC[C@H](N(C)C(=O)N4CC[C@H](O)C4)CC3)cc2cc1C(=O)Nc1cnc2cccnn12 [Example 116]: 13

# input molecule: COc1cc2nn([C@H]3CCC[C@@H](O)C3)cc2cc1C(=O)Nc1cnc2cccnn12 (single isomer, unassigned) [Example 10] ; wanted: its IC50 19

# input molecule: COc1cc2nn([C@H]3CC[C@H](N(C)C(=O)C[C@H](C)O)CC3)cc2cc1C(=O)Nc1cnn2cccnc12 [Example 110] ; wanted: its IC50 16

# input molecule: COc1cc2nn([C@H]3CC[C@H](N(C)C(=O)[C@@H](C)O)CC3)cc2cc1C(=O)Nc1cnc2cccnn12 [Example 95] ; wanted: its IC50 7

# input molecule: CC(=O)N1CC2(CC[C@@H](n3cc4cc(C(=O)Nc5cnn6cccnc56)c(OC5CC5)cc4n3)[C@@H](C)C2)C1 (single isomer, unassigned) [Example 30] ; wanted: its IC50 46

# input molecule: COc1cc2nn(C3CCC(N(C)C(=O)[C@H]4C[C@H](O)C4)CC3)cc2cc1C(=O)Nc1cnn2cccnc12 (stereo partly shown) [Example 97] ; wanted: its IC50 15

# input molecule: COc1cc2nn([C@H]3CC[C@@H](O)C[C@@H]3C)cc2cc1C(=O)Nc1cnc2cccnn12 [Example 90] ; wanted: its IC50 101

# input molecule: COc1cc2nn([C@@H]3CC[C@H](O)[C@@H](C)C3)cc2cc1C(=O)Nc1cnc2cccnn12 (single isomer, unassigned) [Example 83] ; wanted: its IC50 34

# input molecule: COc1cc2nn(C3CCC4(CC3)COCC(=O)N4C)cc2cc1C(=O)Nc1cnn2cccnc12 (single isomer, unassigned) [Example 119] ; wanted: its IC50 16

# input molecule: COc1cc2nn([C@@H]3CCC(N(C)C(C)=O)C[C@H]3C)cc2cc1C(=O)Nc1cnn2cccnc12 (single isomer, unassigned) [Example 61] ; wanted: its IC50 238

# input molecule: COc1cc2nn(C3CCC4(CC3)COC(=O)N4C)cc2cc1C(=O)Nc1cnc2cccnn12 (single isomer, unassigned) [Example 75] ; wanted: its IC50 12

# input molecule: C[C@H]1C[C@H](O)CC[C@@H]1n1cc2cc(C(=O)Nc3cnn4cccnc34)c(OC3CC3)cc2n1 (relative stereo) [Example 42] ; wanted: its IC50 89

====

- Tested on: IL-1β stimulated IL-8 release in hTHP1 cells
- experiment.summary: IL-1β-induced IL-8 release in human THP-1 monocyte cell line
- Type: cell-based
- experimental.setup: Homo sapiens, THP-1, 18 h, THP-1 cells, IL-1β 1.8 ng/mL, geometric mean of at least n=2, * n = 1, read-out: hTHP1, IL1β stim, IL8 release red. IC50
Entries whose IC50 is below 20 nM take MET; entries at or above 20 nM take NOT MET.

The following compounds have reported results that may help.
• COc1cc2nn([C@H]3CC[C@H](N(C)C(C)=O)CC3)cc2cc1C(=O)Nc1cnc2cccnn12 [Example 23] = MET
• COc1cc2nn([C@H]3CC[C@H](O)C[C@@H]3C)cc2cc1C(=O)Nc1cnc2cccnn12 [Example 91] = NOT MET
• COc1cc2nn(C3CCC4(CC3)CN(C(C)=O)C4)cc2cc1C(=O)Nc1cnc2cccnn12 [Example 21] = MET
• COc1cc2nn([C@H]3CC[C@]4(CC3)CC(=O)N(C)C4)cc2cc1C(=O)Nc1cnc2cccnn12 [Example 69] = MET

Now look at this one.
Is IC50 of O=C(Nc1cnn2cccnc12)c1cc2cn([C@@H]3CCC[C@H](O)C3)nc2cc1OC1CC1 [Example 17] strictly below 20 nM? NOT MET
